ASSAY PROCEDURE: growth inhibition, single agents and combos, ICB984, cell-based, cisplatin or BGB combos, synergistic combos for chromothripsis tumors (AID 1671451);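 note: cells exposed for 96 hours before readout; 0% = vehicle DMSO and 100% = killing by high DMSO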
EXPERIMENTAL CONDITIONS: ICB984 medulloblastoma cells, drug combinations, at 0.5 µM, active compounds read high
QUANTITY: inhibition (%)
Answers are plain numbers, in %.

Examples with answers:
SMILES REPRESENTATION: CC(=O)Nc1nc(C)c(-c2ccc(Cl)c(S(=O)(=O)NCCO)c2)s1
RESULT VALUE: -2.76
//
SMILES REPRESENTATION: NC(=O)c1nc(F)c[nH]c1=O
RESULT VALUE: 0.29
//
SMILES REPRESENTATION: NCCOc1cc(C(=O)Nc2cc(OCCN)c3ccccc3n2)nc(C(=O)Nc2cc(OCCN)c3ccccc3n2)c1
RESULT VALUE: -7.14

Supply reported inhibition belonging to this molecule: "CN[C@@H]1CN(c2ccc3c(=O)c(C(=O)O)cn(-c4nccs4)c3n2)C[C@H]1OC" -34.8

* * *

ASSAY PROCEDURE: viability loss in pontine glioma line – cell-based, SU-DIPG-XXV, MIPE5.0, CellTiter-Glo, qHTS, dose response (AID 1347065);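 note: cells exposed to compound for 48 hours before ATP readout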
EXPERIMENTAL CONDITIONS: CellTiter-Glo ATP luminescence
Records with an inconclusive call do not appear. The source made the active and inactive calls. Cut-off not given; nearly all actives show AC50 up to about 26 µM.
Permitted responses: active, inactive

MOLECULE: Cc1ccc(-c2ncn(-c3ccc(Nc4nccc(-c5cccc(N6CCOCC6)c5)n4)cc3)n2)cn1
ASSIGNED LABEL: active

MOLECULE: CNCCCOc1cc(F)c(-c2c(Cl)nc3ncnn3c2N[C@@H](C)C(F)(F)F)c(F)c1
ASSIGNED LABEL: active

MOLECULE: O=C(c1ccc(F)c(F)c1Nc1ccc(I)cc1F)N1CC(O)([C@@H]2CCCCN2)C1
ASSIGNED LABEL: active

MOLECULE: CCN(CC)CCCCNc1ncc2c(n1)N(C)C(=O)N(c1c(Cl)c(OC)cc(OC)c1Cl)C2
ASSIGNED LABEL: active

# evaluate next
So what was the verdict on CCCCCCCN(CC)CCCC(O)c1ccc(NS(C)(=O)=O)cc1 (stereo not given) in this test? inactive

* * *

ASSAY PROCEDURE: BT084 cell growth, single and combined drugs, ICGC_MB145, cisplatin and BGB IC40 combos (AID 1671461);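 note: cells exposed to drugs for 96 hours; 0% = vehicle DMSO and 100% = high DMSO full killing control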
EXPERIMENTAL CONDITIONS: BT084 medulloblastoma cells, drug combinations, at 0.5 µM
Calls of active or inactive are those of the source. Cut-off read from the data, not from the text of the source: active = inhibition above about 80%; inactive = the rest.
Permitted responses: yes (1) (active), no (0) (inactive)

So what was the verdict on "c1cc(Nc2cc(C3CC3)[nH]n2)nc(Nc2ccc3nc[nH]c3c2)n1" in this test? no (0)

So what was the verdict on "O=C(O)CO.[NH2-].[NH2-].[Pt+2]" in this test? no (0)

So what was the verdict on "CN(C)c1ccc(C(=O)NCCCCCCC(=O)NO)cc1" in this test? no (0)

So what was the verdict on "COc1ccc(C(=O)C2CCN(CC(=O)N(Cc3nc4c(c(=O)[nH]3)COCC4)CC3CC3)CC2)cc1" in this test? no (0)

So what was the verdict on "O=C(CCCCCCNC(=O)c1cnc(N(c2ccccc2)c2ccccc2Cl)nc1)NO" in this test? no (0)

So what was the verdict on "CC(=O)Nc1ccc(C(=O)Nc2ccccc2N)cc1" in this test? no (0)

So what was the verdict on "O=C(/C=C/c1ccc(CN(CCO)CCc2c[nH]c3ccccc23)cc1)NO" in this test? yes (1)

So what was the verdict on "CC(=O)Nc1nc(C)c(-c2ccc(Cl)c(S(=O)(=O)NCCO)c2)s1" in this test? no (0)

So what was the verdict on "Cc1ccc([N+](=O)[O-])cc1S(=O)(=O)N(C)/N=C/c1cnc2ccc(Br)cn12" in this test? no (0)

So what was the verdict on "C[C@]12CCCN1CC1=NNC(=O)c3cc(F)cc4[nH]c2c1c34" in this test? no (0)

So what was the verdict on "NC(=O)c1nc(F)c[nH]c1=O" in this test? no (0)

* * *

ASSAY PROCEDURE: JHH-DIPG-1 glioma cell viability, MIPE5.0 library, CellTiter-Glo luminescence, qHTS (AID 1347067);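 note: cells exposed to compound for 48 hours before readout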
EXPERIMENTAL CONDITIONS: JHH-DIPG-1 glioma viability, CellTiter-Glo ATP luminescence
Records with an inconclusive call do not appear. Active and inactive are the calls of the source. The limit is not given here; nearly all actives have AC50 up to about 26 µM.
Permitted responses: YES for active, NO for inactive

The examples below pair each entry with its known result.
SMILES REPRESENTATION: CC(C)Nc1cc(C(F)(F)F)cc2nc(NC(=O)c3cccnc3)nn12
ASSIGNED LABEL: NO
--
SMILES REPRESENTATION: Cc1cc(CN2CCN(c3c(Br)cnc4nc(-c5ccc(N6CCN(C)CC6)cc5)[nH]c34)CC2)no1
ASSIGNED LABEL: YES
--
SMILES REPRESENTATION: NS(=O)(=O)c1ccc(Cc2c(-c3cccc(-c4ccccc4)c3)nn(-c3nc(C(=O)O)cs3)c2CC2CC2)cc1
ASSIGNED LABEL: YES
--
SMILES REPRESENTATION: Cc1ccc(Sc2ccccc2N2CCNCC2)c(C)c1
ASSIGNED LABEL: YES
--
SMILES REPRESENTATION: O=C(O)CNC(=O)c1nc(Cl)c2ccccc2c1O
ASSIGNED LABEL: NO

So what was the verdict on "COc1ccc(-c2ccc3ncc4c(c3c2)n(-c2ccc(N3CCNCC3)c(C(F)(F)F)c2)c(=O)n4C)cn1" in this test? YES

So what was the verdict on "N#C/C(=C1/Nc2ccccc2S1)c1ccnc(OCc2ccc(CN3CCOCC3)cc2)n1" in this test? YES

So what was the verdict on "Cc1ccc(CN2CCNCC2)cc1NC(=O)CNc1ccc(F)c(F)c1" in this test? NO

So what was the verdict on "C=CC(=O)Nc1ccc2ncnc(Nc3ccc(OCc4cccc(F)c4)c(Cl)c3)c2c1" in this test? YES

So what was the verdict on "Cn1nccc1Nc1nccc(-c2ccn([C@H](CO)c3ccc(Cl)c(F)c3)c(=O)c2)n1" in this test? YES

* * *

ASSAY PROCEDURE: growth inhibition, single agents and combos, LFS_MB_1R, cell-based, cisplatin or BGB combos, synergistic combos for chromothripsis tumors (AID 1671452);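 note: cells exposed for 96 hours before readout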
EXPERIMENTAL CONDITIONS: LFS_MB_1R medulloblastoma cells, at 0.5 µM
Calls of active or inactive are those of the source. Cut-off read from the data, not from the text of the source: active = inhibition above about 80%; inactive = the rest.
Permitted responses: active, inactive

So what was the verdict on "O=C(/C=C/c1ccc(CN(CCO)CCc2c[nH]c3ccccc23)cc1)NO" in this test? active

So what was the verdict on "O=C(COc1cccc2c(=O)[nH]ccc12)c1ccccc1" in this test? inactive

So what was the verdict on "CN1CCc2c(c3ccccc3n2Cc2ccc(C(=O)NO)cc2)C1" in this test? inactive

So what was the verdict on "O=C(O)[C@H](Cc1c[nH]c2ccccc12)N1C(=O)c2ccccc2C1=O" in this test? inactive

So what was the verdict on "CC(=O)Nc1ccc(C(=O)Nc2ccccc2N)cc1" in this test? inactive

So what was the verdict on "NCCOc1cc(C(=O)Nc2cc(OCCN)c3ccccc3n2)nc(C(=O)Nc2cc(OCCN)c3ccccc3n2)c1" in this test? inactive

So what was the verdict on "CC(=O)Nc1nc(C)c(-c2ccc(Cl)c(S(=O)(=O)NCCO)c2)s1" in this test? inactive

So what was the verdict on "Nc1ccc(-c2ccc3ncc4ccc(=O)n(-c5cccc(C(F)(F)F)c5)c4c3c2)cn1" in this test? inactive

So what was the verdict on "O=c1cc(N2CCOCC2)oc2c(-c3cccc4c3sc3ccccc34)cccc12" in this test? inactive

So what was the verdict on "CN(C)Cc1c(C(=O)NCCOc2ccc(C(=O)NO)cc2)oc2ccccc12" in this test? inactive

So what was the verdict on "CO[C@H]1/C=C/O[C@@]2(C)Oc3c(C)c(O)c4c(O)c(c(/C=N\N5CCN(C6CCCC6)CC5)c(O)c4c3C2=O)NC(=O)/C(C)=C\C=C\[C@H](C)[C@H](O)[C@@H](C)[C@@H](O)[C@@H](C)[C@H](OC(C)=O)[C@@H]1C" in this test? inactive

So what was the verdict on "Nc1ccccc1NC(=O)c1ccc(CNc2nccc(-c3cccnc3)n2)cc1" in this test? inactive

So what was the verdict on "Nc1ncnc2c1c(-c1cnc3[nH]ccc3c1)nn2C1CCCC1" in this test? inactive

So what was the verdict on "Cc1ccc([N+](=O)[O-])cc1S(=O)(=O)N(C)/N=C/c1cnc2ccc(Br)cn12" in this test? active

* * *

Task for the reader: assign each of the following compounds its reported viability.
ASSAY PROCEDURE: drug combination growth inhibition, ovarian cancer – cell-based, oncology-focused library, rucaparib conditional, profiling panel (AID 1508598)
EXPERIMENTAL CONDITIONS: patient-derived ovarian cancer cells, CellTiter-Glo viability, 144 h; at 0.0781 µM; OCI-C5x cells; with rucaparib 10 µM; active compounds read low; 100% = cells with rucaparib alone
Numbers only, in %.

Examples with answers:
SMILES REPRESENTATION: C[C@@H](Oc1cc(-n2cnc3ccc(CN4CCN(C)CC4)cc32)sc1C(N)=O)c1ccccc1C(F)(F)F
READOUT UNITS: %
viability: 41.7
//
SMILES REPRESENTATION: CN1CCN(c2nc(C3=C(c4c[nH]c5ccccc45)C(=O)NC3=O)c3ccccc3n2)CC1
READOUT UNITS: %
viability: 113
//
SMILES REPRESENTATION: O=C(Nc1cccnc1)N1CCC(Cc2cccc(Oc3ccc(C(F)(F)F)cn3)c2)CC1
READOUT UNITS: %
viability: 114
//
SMILES REPRESENTATION: Cc1cc(Nc2nc(N[C@@H](C)c3ncc(F)cn3)ncc2Cl)n[nH]1
READOUT UNITS: %
viability: 102
//
SMILES REPRESENTATION: CN[C@H]1CN(c2ccc3c(=O)c(C(=O)O)cn(-c4nccs4)c3n2)C[C@@H]1OC
READOUT UNITS: %
viability: 110

For each of the items listed, what is its viability?
1. CCCS(=O)(=O)Nc1ccc(F)c(C(=O)c2c[nH]c3ncc(-c4ccc(Cl)cc4)cc23)c1F
2. COc1c(C)cnc(Cn2cnc3c(Cl)nc(N)nc32)c1C
3. CC(C)c1cc(-c2n[nH]c(=O)n2-c2ccc3c(ccn3C)c2)c(O)cc1O
4. COC(=O)Nc1ccc(-c2nc(N3CCOCC3)c3cnn(C4CCN(C(=O)OC)CC4)c3n2)cc1

[105, 133, 44.1, 115]

Reference source: PubChem BioAssay
